The origin of these recorded values is patent US20250215104A1.

Listed here: items and their measured koff.
# tgt: T1, cynomolgus soluble urokinase plasminogen activator receptor (suPAR) (cynomolgus, UniProt Q9GK78 23-303, limits assumed)
# T1 construct: Column head says only 'cynomologus'; also called cynomolgus suPAR; cynomolgus uPAR
# protocol summary: BLI (Octet) off-rate screen of scFv clones
measured property: koff (s⁻¹)

{"columns": ["binder", "value observed"],
 "data": [
  ["suPAR_DB02_G06 (scFv, V domains shown, scFv clone from phage display) VH: QVQLVQSGAEVKKPGASVKVSCKASGYTFTNYYMHWVRQAPGQGLEWMGWIDHEGGSTIYAQKFQGRVTMTRDTSTSTVYMELSSLRSEDTAVYYCARGYDVDWFVYWGQGTLVTVSS VL: DIQMTQSPSSLSASVGDRVTITCSARSSISYMYWYQQKPGKAPKLLIYRTSNLASGVPSRFSGSGSGTDFTLTISSLQPEDFATYYCQQYHSYPPTFGGGTKVEIK", 0.000132],
  ["suPAR_DB02_D02 (scFv, V domains shown, scFv clone from phage display) VH: QVQLVQSGAEVKKPGASVKVSCKASGDTFTSYYMHWVRQAPGQGLEWMGWIDHEGGNTSYAQKFQGRVTMTRDTSTSTVYMELSSLRSEDTAVYYCARGYDVDWFVYWGQGTLVTVSS VL: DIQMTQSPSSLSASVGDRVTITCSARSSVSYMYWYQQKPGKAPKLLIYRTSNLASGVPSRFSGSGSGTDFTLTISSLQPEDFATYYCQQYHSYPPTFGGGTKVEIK", "2.49e-05"],
  ["suPAR_DB02_G04 (scFv, V domains shown, scFv clone from phage display) VH: QVQLVQSGAEVKKPGASVKVSCKASGHTFTGYYIHWVRQAPGQGLEWMGWIDHENGNTIYDQKFQGRVTMTRDTSTSTVYMELSSLRSEDTAVYYCARGYDVDWFVYWGQGTLVTVSS VL: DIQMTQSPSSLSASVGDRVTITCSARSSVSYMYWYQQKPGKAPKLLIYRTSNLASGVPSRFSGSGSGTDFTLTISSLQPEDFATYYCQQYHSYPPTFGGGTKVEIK", "9.86e-05"],
  ["suPAR_DB02_C09 (scFv, V domains shown, scFv clone from phage display) VH: QVQLVQSGAEVKKPGASVKVSCKASGYTFTGYYMHWVRQAPGQGLEWVGLINPSDGYTTYAQKFQGRVTMTRDTSTSTVYMELSSLRSEDTAVYYCARGYDVDWFVYWGQGTLVTVSS VL: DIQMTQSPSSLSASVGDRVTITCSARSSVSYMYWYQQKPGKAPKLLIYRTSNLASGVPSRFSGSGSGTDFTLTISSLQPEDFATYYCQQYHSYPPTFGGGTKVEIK", 0.000335],
  ["suPAR_DB02_D10 (scFv, V domains shown, scFv clone from phage display) VH: QVQLVQSGAEVKKPGASVKVSCKASGYTFTGYYMHWVRQAPGQGLEWMGWIDPEGGNTIYDQKFQGRVTMTRDTSTSTVYMELSSLRSEDTAVYYCARGYDVDWFVYWGQGTLVTVSS VL: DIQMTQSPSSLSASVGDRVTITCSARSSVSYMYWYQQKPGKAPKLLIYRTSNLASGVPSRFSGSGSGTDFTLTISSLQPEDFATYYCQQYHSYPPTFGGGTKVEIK", 0.000381],
  ["suPAR_DB02_G08 (scFv, V domains shown, scFv clone from phage display) VH: QVQLVQSGAEVKKPGASVKVSCKASGDTFTSYYMHWVRQAPGQGLEWMGWIDHEGGNTSYEQKFQGRVTMTRDTSTSTVYMELSSLRSEDTAVYYCARGYDVDWFVYWGQGTLVTVSS VL: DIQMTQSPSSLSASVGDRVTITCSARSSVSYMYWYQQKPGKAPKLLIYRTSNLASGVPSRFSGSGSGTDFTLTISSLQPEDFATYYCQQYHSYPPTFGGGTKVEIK", 0.000103],
  ["suPAR_DB02_D03 (scFv, V domains shown, scFv clone from phage display) VH: QVQLVQSGAEVKKPGASVKVSCKASGYTFTSHYMHWVRQAPGQGLEWMGWIDHENGNTIYDQKFQGRVTMTRDTSTSTVYMELSSLRSEDTAVYYCARGYDVDWFVYWGQGTLVTVSS VL: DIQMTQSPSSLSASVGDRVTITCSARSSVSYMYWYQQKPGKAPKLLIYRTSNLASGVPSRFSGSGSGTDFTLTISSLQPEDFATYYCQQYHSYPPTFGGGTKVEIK", 0.000188],
  ["suPAR_DB02_C10 (scFv, V domains shown, scFv clone from phage display) VH: QVQLVQSGAEVKKPGASVKVSCKASGYTFTDYYVHWVRQAPGQGLEWMGWIDHEGGSTIYDQKFQGRVTMTRDTSTSTVYMELSSLRSEDTAVYYCARGYDVDWFVYWGQGTLVTVSS VL: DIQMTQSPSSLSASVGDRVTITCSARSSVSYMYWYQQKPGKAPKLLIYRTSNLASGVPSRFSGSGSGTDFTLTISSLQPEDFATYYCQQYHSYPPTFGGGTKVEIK", 0.000198],
  ["suPAR_DB02_E02 (scFv, V domains shown, scFv clone from phage display) VH: QVQLVQSGAEVKKPGASVKVSCKASGYTFTDYYMHWVRQAPGQGLEWMGWIDHENGNTIYDQKFQGRVTMTRDTSTSTVYMELSSLRSEDTAVYYCARGYDVDWFVYWGQGTLVTVSS VL: DIQMTQSPSSLSASVGDRVTITCSARSSVSYMYWYQQKPGKAPKLLIYRTSSLQSGVPSRFSGSGSGTDFTLTISSLQPEDFATYYCQQYHSYPPTFGGGTKVEIK", 0.000189],
  ["suPAR_DB02_E04 (scFv, V domains shown, scFv clone from phage display) VH: QVQLVQSGAEVKKPGASVKVSCKASGYTFTNYYIQWVRQAPGQGLEWMGWIDHENGNTIYDQKFQGRVTMTRDTSTSTVYMELSSLRSEDTAVYYCARGYDVDWFVYWGQGTLVTVSS VL: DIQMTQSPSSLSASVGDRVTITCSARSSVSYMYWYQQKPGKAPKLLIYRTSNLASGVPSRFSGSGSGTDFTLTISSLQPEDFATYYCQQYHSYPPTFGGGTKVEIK", 0.000217]
]}
